B1: library; numbered along this chain (parent)
chain: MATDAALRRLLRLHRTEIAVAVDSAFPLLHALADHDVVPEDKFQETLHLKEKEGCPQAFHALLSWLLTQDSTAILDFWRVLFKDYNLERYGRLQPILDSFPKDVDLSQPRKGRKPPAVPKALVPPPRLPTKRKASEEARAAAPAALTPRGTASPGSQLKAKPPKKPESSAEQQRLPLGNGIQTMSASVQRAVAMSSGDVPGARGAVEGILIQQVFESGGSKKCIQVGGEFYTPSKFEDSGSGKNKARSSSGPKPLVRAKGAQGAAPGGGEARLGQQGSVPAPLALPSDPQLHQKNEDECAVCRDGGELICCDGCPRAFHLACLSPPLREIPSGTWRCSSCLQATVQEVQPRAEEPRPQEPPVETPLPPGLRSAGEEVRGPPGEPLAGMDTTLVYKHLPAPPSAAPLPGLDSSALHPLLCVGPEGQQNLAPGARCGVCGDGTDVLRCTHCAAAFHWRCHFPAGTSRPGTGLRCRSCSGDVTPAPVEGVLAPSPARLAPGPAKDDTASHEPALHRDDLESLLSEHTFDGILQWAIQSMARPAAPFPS

- Variants of: B1
- test-details: AIRE transcriptional activation functional score (insulin promoter-GFP; nonsense median 0, synonymous median 1) (normalised score); higher = higher AIRE activity (more reporter activation)
- assay-conditions: with insulin promoter-GFP reporter in HEK293
Label T when AIRE transcriptional activation functional score is at or above 0.7; anything below gets F.

| mutation-descriptor | label-value |
| --- | --- |
| V192A | F |
| N295E | T |
| S535P | F |
| P430L | T |
| T344G | T |
| Q426H | T |
| S339N | T |
| E40C | F |
| A404M | T |
| D478V | T |
| L63D | F |
| C311D | T |
| A170G | T |
| D84T | T |
| Q69A | F |
| V192G | T |
| V256Q | F |
| P282A | T |
| G150K | T |
| Y85W | F |
